Target or system Cruzipain (Trypanosoma cruzi); recorded quantity IC50.
# number only, unit µM dropped from output

Name the recorded IC50 for NC1=NS(=O)(=O)Nc2nc(Cc3ccccc3)[nH]c21 .
23

Check NC1=NS(=O)(=O)N(Cc2ccc(Cl)cc2)c2nc(-c3ccccc3F)[nH]c21 too.
86

What do you get for NC1=NS(=O)(=O)N(Cc2ccccc2)c2nc(-c3ccccc3)n(Cc3ccccc3)c21 ?
81

Do the same for NC1=NS(=O)(=O)Nc2nc(C3CCCCC3)[nH]c21 please
12

---

Answer each item with its documented inhibition of growth at 25 µM.
Tested on: Trypanosoma cruzi
Assay: Growth inhibition of Trypanosoma cruzi Tulahuen 2 epimastigotes at 25 uM after 5 days relative to control
Assay type: functional
Details: Tulahuen 2, 120 h, read-out: GI
Form entry: value (%) — number only.

Please give the measured inhibition of growth at 25 µM for this molecule: NC1=NS(=O)(=O)N(Cc2ccc(Cl)cc2)c2nc(C3CCCCC3)[nH]c21
0

Same question for NC1=NS(=O)(=O)Nc2nc(-c3cccnc3)[nH]c21 please.
37.5

What do we get for Cc1nc2c([nH]1)C(N)=NS(=O)(=O)N2 ?
38.7

Also check NC1=NS(=O)(=O)Nc2nc(Cc3ccccc3)[nH]c21
59.7

Now the molecule CN1c2nc(-c3ccsc3)[nH]c2C(N)=NS1(=O)=O
46.3

Same for CN(C)c1ccc(-c2nc3c([nH]2)C(N)=NS(=O)(=O)N3)cc1
42.8

Also CCc1nc2c([nH]1)C(N)=NS(=O)(=O)N2 , if possible.
43

Okay, and NC1=NS(=O)(=O)N(Cc2ccccc2)c2nc(C3CCCCC3)n(Cc3ccccc3)c21 ?
45.7

What do you have for NC1=NS(=O)(=O)N(Cc2ccccc2)c2nc(-c3ccccc3)n(Cc3ccccc3)c21 ?
100

Try the molecule NC1=NS(=O)(=O)Nc2nc(-c3ccsc3)[nH]c21
51.3

Also, NC1=NS(=O)(=O)Nc2nc(C3CCCC3)[nH]c21 please.
42.2

Same read-out for NC1=NS(=O)(=O)Nc2nc(CCc3ccccc3)[nH]c21 ?
73.6

Okay, and NC1=NS(=O)(=O)Nc2nc(-c3ccc([N+](=O)[O-])o3)[nH]c21 ?
31.3

Now consider NC1=NS(=O)(=O)Nc2nc(C3CCCCC3)[nH]c21 .
72.3
